Form field: self-cleavage kobs at 640 uM GlcN6P (one value per entry).
B1: glmS ribozyme (parent)
chain: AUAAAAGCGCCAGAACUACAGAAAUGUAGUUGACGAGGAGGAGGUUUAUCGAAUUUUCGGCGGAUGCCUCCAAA

variants of: B1; experiment: self-cleavage kobs at 640 uM GlcN6P; higher = faster cleavage; RNA array; details: with glucosamine-6-phosphate
Variants at the floor of the assay were thinned out.
Measure Name: self-cleavage kobs at 640 uM GlcN6P

AUAAAAGCGCCUGAACUACAGAAAUGUAGUUGACGAGGAGGGGGUUUAUCGAAUUAUCGGCGGAUGUCUCCAAA [A12U A42G U56A C67U]; 0.00156 s⁻¹
ACAAAAGCGCCAGAAGUACAGAAAUGUAGUUGACGAGGAGGAGGUUUAUCGACUUUUCGGCGGAUGCCUCCAAA [U2C C16G A53C]; 0.000137 s⁻¹
AUAAAAGUGUUAGAACUACAGAAAUGUAGUUGACGAGGAGGAGGUUUAUCCAAUUUUCGGCGGAUGCCUCCAAA [C8U C10U C11U G51C]; < 1e-05 s⁻¹
AUAAAAGCGCCAGAGCUACAGAAAUGUAGUUGAAGAGGAGGAGGUUUAUCGAAUUUUCGGCGGAUGCCUCCAAA [A15G C34A]; < 1e-05 s⁻¹
AUAAAAGCGACAGAACUACAGAAAUGUAGAUGACGAGGAGGAGGUUUAUCGAAUUUUCGGCGGAUGCCUCCAAA [C10A U30A]; < 1e-05 s⁻¹
AUAAAUACGCCAGAACUACAGAAAUGUAGUUGACGAGGAGGAGUUUUAUCGUAUCUUCGGCGGUUGCCUCCAAA [A6U G7A G44U A52U U55C A64U]; < 1e-05 s⁻¹
AUAAAAGCGCCAGAACUACAGAAAUGUAGUUGACGAGGAGUAGGUGUAUCGAAUUUUCCGCGGAUGCCUCCAAA [G41U U46G G59C]; < 1e-05 s⁻¹
AUAAAAGCGCCAGAAGUACAGAAAUGUAGUUGACGAGGAGGAGGAUUAUCGAAUUUUCGGCGGAUGCCUCCAAA [C16G U45A]; 0.00226 s⁻¹
AUAAAAGCGCCAGAACUACAGAAAUGUAGAUGACGAGAAGGAGGUUUAUCGAAUUUUCGGCGGACGCCUGCAAA [U30A G38A U65C C70G]; < 1e-05 s⁻¹
AUAAAAGCGCCAGAACUACAGAAAUGUAGUUGACGAGGAGCAGGUUUAUCGAAUUUUCGGCGAAUGCCUCCAAA [G41C G63A]; < 1e-05 s⁻¹

Each recorded value in this set is attributed to the supplement of paper PMC7125110.
